Tested on: Diabrotica balteata
Experiment: Example B1: Diabrotica balteata (corn root worm), maize sprouts sprayed, L2 larvae
Assay type: in vivo
Details: 96 h, application rate 200 ppm, 4 days after infestation, read-out: control in at least one of the two categories (mortality or growth inhibition)
Recorded percent control (mortality or growth inhibition) at 200 ppm for the following molecules

Below: 4 molecules and their reported percent control (mortality or growth inhibition) at 200 ppm.
{"columns": ["molecule", "measured target", "reading"],
 "data": [
  ["CC(NC(=O)c1cc(C(F)(F)F)cc(C(F)(F)F)c1)c1ncnn1-c1ccc(F)cn1 (centres unmarked)", "Diabrotica balteata", "≥ 80%"],
  ["CC(c1ncnn1-c1ncccc1F)N(CC1CC1)C(=O)c1cc(C(F)(F)F)cc(C(F)(F)F)c1 (centres unmarked) [Compound P2]", "Diabrotica balteata", "≥ 80%"],
  ["CC(c1ncnn1-c1ccc(F)cn1)N(CC1CC1)C(=O)c1cc(C(F)(F)F)cc(C(F)(F)F)c1 (centres unmarked)", "Diabrotica balteata", "≥ 80%"],
  ["CC(NC(=O)c1cc(C(F)(F)F)cc(C(F)(F)F)c1)c1ncnn1-c1ncccc1F (centres unmarked)", "Diabrotica balteata", "≥ 80%"]
]}

Alright, here's another molecule for you.
Prompt: Entry CC(NC(=O)c1cc(C(F)(F)F)cc(C(F)(F)F)c1)c1ncnn1-c1ccc(Cl)cn1 (centres unmarked) [Compound P1] has what percent control (mortality or growth inhibition) at 200 ppm?
Response: ≥ 80%
